The measurements presented in this section are drawn from PubChem BioAssay (NCI).

# Test system: PC-3 prostate
# PROCEDURE_TEXT: NCI tumour cell line growth inhibition, 48 h
OBSERVATION_TYPE: TGI

Sample answers from the record:
- COMPOUND: "COc1ccc(/C(=C/c2ccc3ccccc3c2)c2nn[nH]n2)cc1OC"
  OBS_VALUE: "> 100 µM"
- COMPOUND: "Nc1c(C(=O)c2ccc(C#CCN3CCOCC3)cc2)cnn1-c1ccc(F)cc1"
  OBS_VALUE: "> 25 µM"

Query block: Item under review: CCOC(=O)NC(Nc1ccc(S(=O)(=O)Nc2ccc(OC)nn2)cc1)(C(F)(F)F)C(F)(F)F . Reported TGI?
Result block: > 100 µM

Query block: Fill in: TGI of CCCCC(O)(c1ccccc1)C(O)(c1ccccc1)c1c(F)c(F)c(F)c(F)c1F (stereo unspecified) is ___
Result block: 46.8 µM

Query block: State the recorded TGI for this entry: Clc1ccc(C2CC(c3cccc(Nc4ccncc4)c3)=NN2c2ccccc2)cc1 (stereo unspecified)
Result block: 3.12 µM

----------
# Tested on: RXF 393 renal
# PROCEDURE_TEXT: NCI tumour cell line growth inhibition, 48 h; in the data active means GI50 below about 0.43 µM; inactive means the rest
// classify into active, inactive

Would you please look over these solved cases?
- MOLECULE: "O=C(/C=C\\c1cc(Br)ccc1O)/C=C/c1cc(Br)ccc1O"
  CATEGORY: "active"
- MOLECULE: "CN1C(=O)/C(=C2\\S/C(=N\\c3nnc(-c4ccccc4)o3)NC2=O)c2ccccc21"
  CATEGORY: "inactive"
- MOLECULE: "Cc1cc(O[C@@H]2O[C@@H](C)[C@H](O)[C@@H](O)[C@H]2O)c2c3c(c(O[C@@H]4O[C@@H](C)[C@H](O)[C@@H](O)[C@H]4O)cc2c1)C(=O)c1c(O)cccc1C3=O"
  CATEGORY: "inactive"
- MOLECULE: "COC1=CC(c2ccc[nH]2)=N/C1=C\\c1[nH]c(C)c(C(=O)Oc2ccccc2)c1C"
  CATEGORY: "active"
- MOLECULE: "C[C@@H]1CC[C@H]2[C@@H](C)C(OC/C=C/COC3O[C@@H]4O[C@@]5(C)CC[C@H]6[C@H](C)CC[C@@H]([C@H]3C)[C@@]46OO5)O[C@@H]3O[C@@]4(C)CC[C@@H]1[C@]32OO4 (stereo partly specified)"
  CATEGORY: "active"
- MOLECULE: "COc1ccc2nc3cc(Cl)ccc3c(NCCNCC(O)CO)c2c1 (stereo unspecified)"
  CATEGORY: "inactive"

Query block: What did the test return for O=C(Nc1ccc(Oc2ccc(NC(=O)Nc3ccccc3Cl)cc2)cc1)Nc1ccccc1Cl ?
Result block: inactive

Query block: What did this assay record as the result for COc1ccc(C2CC(c3ccccc3)=NN2C(=O)c2cc(OC)c(OC)c(OC)c2)cc1O (stereo unspecified) ?
Result block: active

Query block: Per the assay record, what outcome was assigned to [N-]=[N+]=NCCCn1c2c(c3ccc([N+](=O)[O-])cc3c1=O)C(=O)c1cc(I)ccc1-2 ?
Result block: inactive

Query block: State the result this test recorded for C[C@@H](Oc1ccc(Oc2cnc3ccc(Cl)cc3n2)cc1)C(=O)O .
Result block: inactive

Query block: Please indicate how the test categorized CCCCCCCCCCCCNC(=O)N[C@H](C(=O)N[C@H]1/C=C/CCNC(=O)/C=C/[C@H](C)NC1=O)C(C)C .
Result block: active
